# credit: paper PMC10720262

Target: PfCSP full length (Plasmodium falciparum (isolate NF54), UniProt P19597)
Sequence (P19597 20-375): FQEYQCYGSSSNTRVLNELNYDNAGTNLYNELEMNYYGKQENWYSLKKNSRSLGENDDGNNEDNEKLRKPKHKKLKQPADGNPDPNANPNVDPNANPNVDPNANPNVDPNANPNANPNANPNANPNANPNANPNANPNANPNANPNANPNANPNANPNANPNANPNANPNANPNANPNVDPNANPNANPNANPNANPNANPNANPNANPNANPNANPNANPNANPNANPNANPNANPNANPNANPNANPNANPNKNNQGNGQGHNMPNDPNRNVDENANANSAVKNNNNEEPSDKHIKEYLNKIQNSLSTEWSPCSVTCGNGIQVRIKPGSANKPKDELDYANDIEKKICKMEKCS
Test: ELISA AUC
RECORDED_ENDPOINT: binding score
I'd appreciate a reply containing only the number, no unit.

Ask: Value lookup for binding score; key = CL-510453 (antibody, V domains shown, peptides N-terminally acetylated and C-terminally amidated) VH: QVQLVESGGGVVQPGRSLRLSCAASGFTFSSYGMHWVRQAPDKGLEWVAIIWYDGSKKYYADSVKGRFTVSRDNSKNTLYLQMNSLRAEDTAVFYCARSFDYESGGFYSFDYWGQGTLVSVSS VL: DIQMTQSPSTLSASVGDRVTITCRASQSISSWLAWYQQKPGKAPKLLIYRASSLASGVPSRFSGSGSGTEFTLTISSLQPDDFATYYCQQYNSYWTFGQGTKVEFK
Reply: 2.07

Ask: And then CL-460619 (antibody, V domains shown, peptides N-terminally acetylated and C-terminally amidated) VH: QVQLVESGGGVVQPGRSLRLSCAASGFTFDYYGMHWVRQAPGKGLEGVAIIWYDGSNKFYADSVKGRFTISRDNSKNTLYLQMTSLRVEDTAVYYCARDGRIGDPGPYFDYWGQGTLVTVSS VL: EIVMTQSPATLSVSPGERPTLSCRASQSVSSKLAWYQQKPDQAPRLLIYGASTRATGIPPRFSGSGSGTEFTLTIDSLQSEDFAVYYCQQYHKWWTFGQGTKVEIK , what is it?
Reply: 2.2
